Origin of measurements: PubChem BioAssay (NCI)

Test system: A549 NSCLC
test-protocol: NCI tumour cell line growth inhibition, 48 h
Give measured GI50 for each item. Keep answers brief.

Look up GI50: `O=C1CSC(c2ccc(-c3nc4ccccc4s3)cc2)=N1` 43.9 µM

Name the reported GI50 value associated with the compound `CC[C@@]1(O)C(=O)OCc2c1cc1n(c2=O)Cc2c-1nc1cc(F)c(C)c3c1c2[C@@H](N)CC3` < 0.01 µM

Suppose we examine the compound C[C@H]1CCC/C=C/[C@@H]2C[C@H](O)C[C@H]2[C@H](O)[C@@H](SCC(O)CO)CC(=O)O1 (stereo not given in full) ; what GI50 value has been reported? 34.4 µM

Give its GI50 value. Item: `O=C(NCc1ccc(S(=O)(=O)c2cc(F)cc(F)c2)cc1)c1ccc2nccn2c1` 9.59 µM

I have this compound here, `O=c1[nH]c(=O)n([C@H]2CCCO2)cc1F` , and I need its recorded GI50. 625 µM
